B1: FBXO3 (parent)
chain: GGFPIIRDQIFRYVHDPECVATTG

- Variants of: B1
- Protocol summary: protein stability index of a GFP-peptide fusion (GPS, HEK-293T) (PSI 1-6); higher = more stable;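 further: lentivirally expressed fusions sorted by FACS into six bins by GFP to DsRed ratio, PSI derived from sequencing read proportions per bin multiplied by bin number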
- Test conditions: c terminus: a fixed tail appended
Respond with satisfied for protein stability index values of 2 and above, not satisfied for values below.

{"Mutation id": "H15G", "Label": "not satisfied"}
{"Mutation id": "I5V", "Label": "not satisfied"}
{"Mutation id": "I5Y", "Label": "satisfied"}
{"Mutation id": "I6S", "Label": "satisfied"}
{"Mutation id": "H15E", "Label": "satisfied"}
{"Mutation id": "Q9A", "Label": "satisfied"}
{"Mutation id": "T23D", "Label": "not satisfied"}
{"Mutation id": "I5C", "Label": "not satisfied"}
{"Mutation id": "Y13D", "Label": "satisfied"}
{"Mutation id": "P4K", "Label": "satisfied"}
{"Mutation id": "T23N", "Label": "satisfied"}
{"Mutation id": "E18D", "Label": "not satisfied"}

The measurements presented in this section are drawn from the supplement of paper PMC10567573.
